System: CCRIS mutagenicity, Ames/micronucleus/aberration tests
assay_remarks: CCRIS mutagenicity studies
run_conditions: Test System: AMES SALMONELLA TYPHIMURIUM; Strain/Indicator: TA98; Metabolic Activation: RAT, LIVER, S-9, AROCLOR; Method: STANDARD PLATE
The source made the active and inactive calls. The rule behind the calls is not given here.
Outcomes: T (active), F (inactive)

| molecule | category_label |
| --- | --- |
| c1ccccc1 | F |
| c1ccc(CNc2ncnc3nc[nH]c23)cc1 | F |
| CN(CCC#N)c1ccc(N=Nc2ccc3ncsc3c2)cc1 | T |
| Cc1ccc(C(O)(P(=O)(O)O)P(=O)(O)O)cc1N(CCCl)CCCl | F |
| COP(=O)(OC)C(OC(=O)CCl)C(Cl)(Cl)Cl (stereo unspecified) | F |
| Clc1ccccc1Cl | F |

----------
Tested on: CCRIS mutagenicity, Ames/micronucleus/aberration tests
assay_remarks: CCRIS mutagenicity studies
run_conditions: Test System: AMES SALMONELLA TYPHIMURIUM; Strain/Indicator: TA1535; Metabolic Activation: NONE
Calls of active or inactive are those of the source. The rule behind the calls is not given here.
Outcome codes: true for active, false for inactive

| compound | category_label |
| --- | --- |
| C=CCOc1ccccc1OCC(O)CNC(C)C (configuration not stated) | false |
| O=[N+]([O-])c1ccc2c3c(cccc13)-c1ccccc1-2 | false |
| N[C@@H](CCC(=O)NNc1ccc(CO)cc1)C(=O)O | false |
| CCCN=NC(C)(C)OO | true |
| CCCC(=O)Nc1ccc(OCC(O)CNC(C)C)c(C(C)=O)c1 (configuration not stated) | false |
| CC(=O)N[C@@H]1[C@@H](O[C@@H]2O[C@H](C(=O)O)[C@@H](O[C@@H]3O[C@H](CO)[C@@H](O)[C@H](O[C@@H]4O[C@H](C(=O)O)[C@@H](O)[C@H](O)[C@H]4O)[C@H]3NC(C)=O)[C@H](O)[C@H]2O)[C@H](O)[C@@H](CO)O[C@H]1O | false |
| CCN(CC)CC#CCOC(=O)C(O)(c1ccccc1)C1CCCCC1 (configuration not stated) | false |

----------
System: CCRIS mutagenicity, Ames/micronucleus/aberration tests
assay_remarks: CCRIS mutagenicity studies
run_conditions: Test System: AMES SALMONELLA TYPHIMURIUM; Strain/Indicator: TA100; Metabolic Activation: RAT, LIVER, S-9, AROCLOR 1254; Method: PREINCUBATION
Excerpt: The CCRIS database contains chemical records with carcinogenicity, mutagenicity, tumor promotion, and tumor inhibition test results. It was developed by the National Cancer Institute (NCI). Data are derived from studies cited in primary journals, current awareness tools, NCI reports, and other sources. Test results have been reviewed by experts in carcinogenesis and mutagenesis. CCRIS provides historical information from the years 1985 - 2011. It is no longer updated. […]
The source made the active and inactive calls. How the calls were made is not given here.
Outcome codes: active, inactive

| compound | category_label |
| --- | --- |
| CCC(C)=O | inactive |
| O=C(CCCN1CCC(O)(c2ccc(Cl)cc2)CC1)c1ccc(F)cc1 | inactive |
| c1ccc(Nc2ccc3ccccc3c2)cc1 | inactive |
| OCC1CO1 (stereo unspecified) | active |
| [Br][Pt-2]([Br])([Br])([Br])([Br])[Br] | inactive |
| CCc1ccccc1 | inactive |
| Cc1ccc(C=O)o1 | inactive |
| CC(=O)CN(CC(C)=O)N=O | active |
| CC1CCC(C(C)CS)CC1S (stereo unspecified) | inactive |
| COc1cc(C(C)=O)cc(OC)c1O | inactive |
| Cc1cc2ccccc2c2cc3c(cc12)[C@H](O)[C@@H](O)C=C3 | active |
| c1ccc(Oc2ccccc2)cc1 | inactive |
| Cc1cn([C@H]2C[C@H](O)[C@@H](CO)O2)c(=O)[nH]c1=O | inactive |
| CNS(=O)(=O)c1ccc(NC(C)=O)cc1 | inactive |
| ClC(Cl)=C(Cl)/C(Cl)=C(\Cl)SCc1ccccc1 | active |
| c1ccc2ncccc2c1 | active |
| CCN(N=O)c1ccccc1 | inactive |
| Cc1cccc(C)c1N | inactive |
| N=C(N)c1ccccc1 | inactive |
| Fc1ccc2c3c(cccc13)-c1c-2ccc2ccccc12 | active |
| O=C1C=CC(=O)C=C1 | inactive |

----------
System: CCRIS mutagenicity, Ames/micronucleus/aberration tests
assay_remarks: CCRIS mutagenicity studies
run_conditions: Test System: AMES SALMONELLA TYPHIMURIUM; Strain/Indicator: TA100; Metabolic Activation: RAT LIVER S-9, PHENOBARBITAL AND BETA-NAPHTHOFLAVONE; Method: PREINCUBATION
Calls of active or inactive are those of the source. How the calls were made is not given here.
endpoint_name: mutagenic call

| compound | tested_target | endpoint_name | observed |
| --- | --- | --- | --- |
| Nc1cc(S(=O)(=O)O)cc2cc(S(=O)(=O)O)cc(O)c12 | CCRIS mutagenicity, Ames/micronucleus/aberration tests | mutagenic call | inactive; negative |
| O=C(OOC(=O)c1ccccc1)c1ccccc1 | CCRIS mutagenicity, Ames/micronucleus/aberration tests | mutagenic call | inactive; negative |
| c1ccc2cc(Nc3ccc(Nc4ccc5ccccc5c4)cc3)ccc2c1 | CCRIS mutagenicity, Ames/micronucleus/aberration tests | mutagenic call | inactive; negative |
| N#Cc1ccccc1C#N | CCRIS mutagenicity, Ames/micronucleus/aberration tests | mutagenic call | inactive; negative |
| O=C1c2ccccc2C(=O)c2ccccc21 | CCRIS mutagenicity, Ames/micronucleus/aberration tests | mutagenic call | inactive; negative |
| O=Cc1ccc(O)cc1 | CCRIS mutagenicity, Ames/micronucleus/aberration tests | mutagenic call | inactive; negative |
| O=C(O)c1cc2ccccc2cc1O | CCRIS mutagenicity, Ames/micronucleus/aberration tests | mutagenic call | inactive; negative |
| CC(C)C(=O)OCC(C)(C)C(O)C(C)C (stereo not given) | CCRIS mutagenicity, Ames/micronucleus/aberration tests | mutagenic call | inactive; negative |
| Nc1ccc(S(=O)(=O)O)c2ccccc12 | CCRIS mutagenicity, Ames/micronucleus/aberration tests | mutagenic call | inactive; negative |
| CCOc1ccc2ccccc2c1 | CCRIS mutagenicity, Ames/micronucleus/aberration tests | mutagenic call | inactive; negative |
| Cc1ccccc1Br | CCRIS mutagenicity, Ames/micronucleus/aberration tests | mutagenic call | inactive; negative |
| O=C=Nc1cccc2c(N=C=O)cccc12 | CCRIS mutagenicity, Ames/micronucleus/aberration tests | mutagenic call | inactive; negative |
| CC(C)(C)CC(C)(C)c1ccc(O)cc1 | CCRIS mutagenicity, Ames/micronucleus/aberration tests | mutagenic call | inactive; negative |
| Oc1ccc(Cc2ccccc2O)cc1 | CCRIS mutagenicity, Ames/micronucleus/aberration tests | mutagenic call | inactive; negative |
| O=[N+]([O-])c1cccc2cccc([N+](=O)[O-])c12 | CCRIS mutagenicity, Ames/micronucleus/aberration tests | mutagenic call | active; positive |
| C=CC[N+](C)(C)CC=C | CCRIS mutagenicity, Ames/micronucleus/aberration tests | mutagenic call | inactive; negative |
| c1ccc2ncccc2c1 | CCRIS mutagenicity, Ames/micronucleus/aberration tests | mutagenic call | active; positive |
| NNc1ccccc1 | CCRIS mutagenicity, Ames/micronucleus/aberration tests | mutagenic call | inactive; negative |
| CC(=O)Nc1ccc(S(=O)(=O)Cl)cc1 | CCRIS mutagenicity, Ames/micronucleus/aberration tests | mutagenic call | inactive; negative |
| N#Cc1ccccc1 | CCRIS mutagenicity, Ames/micronucleus/aberration tests | mutagenic call | inactive; negative |

----------
Tested on: CCRIS mutagenicity, Ames/micronucleus/aberration tests
assay_remarks: CCRIS mutagenicity studies
run_conditions: Test System: AMES SALMONELLA TYPHIMURIUM; Strain/Indicator: TA98; Metabolic Activation: RAT, LIVER, S-9, AROCLOR 1254 (10%); Method: PREINCUBATION
Calls of active or inactive are those of the source. The rule behind the calls is not given here.
Possible outcomes: t for active, f for inactive

| compound | tested_target | category_label |
| --- | --- | --- |
| Nc1ccc(O)c([N+](=O)[O-])c1 | CCRIS mutagenicity, Ames/micronucleus/aberration tests | f |
| CN(C)c1ccc(N=NS(=O)(=O)O)cc1 | CCRIS mutagenicity, Ames/micronucleus/aberration tests | t |
| O=[N+]([O-])c1cccc2cc3ccccc3cc12 | CCRIS mutagenicity, Ames/micronucleus/aberration tests | t |
| OCCOCCO | CCRIS mutagenicity, Ames/micronucleus/aberration tests | f |
| Cc1c(C)c(Br)c(Br)c(Br)c1Br | CCRIS mutagenicity, Ames/micronucleus/aberration tests | f |
| Cc1ccc(C(C)(C)C)cc1 | CCRIS mutagenicity, Ames/micronucleus/aberration tests | f |
| O=S(=O)(O)c1ccc(N=Nc2c(O)ccc3cc(S(=O)(=O)O)ccc23)cc1 | CCRIS mutagenicity, Ames/micronucleus/aberration tests | f |
| CCCCC/C=C\C/C=C\CCCCCCCC(=O)O | CCRIS mutagenicity, Ames/micronucleus/aberration tests | f |
| CNc1ccc(N(CCO)CCO)cc1[N+](=O)[O-] | CCRIS mutagenicity, Ames/micronucleus/aberration tests | t |
| CCOC(/C=C(\C)CCC=C(C)C)OCC | CCRIS mutagenicity, Ames/micronucleus/aberration tests | f |
| OCC(Br)CBr (stereo not drawn) | CCRIS mutagenicity, Ames/micronucleus/aberration tests | t |
| CCC(C)Nc1ccc(NC(C)CC)cc1 (stereo not drawn) | CCRIS mutagenicity, Ames/micronucleus/aberration tests | f |
| Nc1cc([N+](=O)[O-])cc(Cl)c1O | CCRIS mutagenicity, Ames/micronucleus/aberration tests | t |
| CC/C=C1\OC(=O)c2ccccc21 | CCRIS mutagenicity, Ames/micronucleus/aberration tests | f |
| CCOCCO | CCRIS mutagenicity, Ames/micronucleus/aberration tests | f |
| COc1cc(-c2ccc(N/N=C3\C=C(S(=O)(=O)O)c4ccccc4C3=O)c(OC)c2)ccc1N/N=C1/C=C(S(=O)(=O)O)c2ccccc2C1=O | CCRIS mutagenicity, Ames/micronucleus/aberration tests | f |
| O=C1CCC(=O)O1 | CCRIS mutagenicity, Ames/micronucleus/aberration tests | f |
| OCC(Cl)CCl (stereo not drawn) | CCRIS mutagenicity, Ames/micronucleus/aberration tests | t |
| c1ccc2c(c1)Nc1ccccc1S2 | CCRIS mutagenicity, Ames/micronucleus/aberration tests | f |
| N#CCO | CCRIS mutagenicity, Ames/micronucleus/aberration tests | f |
| CC(=O)/C(C)=N/O | CCRIS mutagenicity, Ames/micronucleus/aberration tests | f |
| C[N+](=O)[O-] | CCRIS mutagenicity, Ames/micronucleus/aberration tests | f |
| CN(C)CCN(Cc1ccc(Cl)s1)c1ccccn1 | CCRIS mutagenicity, Ames/micronucleus/aberration tests | f |
| CN(C)CCCN1c2ccccc2Sc2ccc(Cl)cc21 | CCRIS mutagenicity, Ames/micronucleus/aberration tests | f |
| O=C1OC(c2ccc(O)cc2)(c2ccc(O)cc2)c2ccccc21 | CCRIS mutagenicity, Ames/micronucleus/aberration tests | f |
| Cc1ccc(N=Nc2c(O)ccc3ccccc23)c([N+](=O)[O-])c1 | CCRIS mutagenicity, Ames/micronucleus/aberration tests | f |
| OC(CCl)CCl | CCRIS mutagenicity, Ames/micronucleus/aberration tests | f |
| c1ccc(Nc2ccccc2)cc1 | CCRIS mutagenicity, Ames/micronucleus/aberration tests | f |
| Cc1cc(Cl)ccc1O | CCRIS mutagenicity, Ames/micronucleus/aberration tests | f |
| Cc1cc(C)cc(N)c1 | CCRIS mutagenicity, Ames/micronucleus/aberration tests | f |
| C=C(C)C(=O)OCCC | CCRIS mutagenicity, Ames/micronucleus/aberration tests | f |
| NC1CCC(CC2CCC(N)CC2)CC1 (stereo not drawn) | CCRIS mutagenicity, Ames/micronucleus/aberration tests | f |
| CCOC(=O)c1ccccc1N | CCRIS mutagenicity, Ames/micronucleus/aberration tests | f |
| C[CH2][Pb]([Cl])([CH2]C)[CH2]C | CCRIS mutagenicity, Ames/micronucleus/aberration tests | f |
| CC(C)N | CCRIS mutagenicity, Ames/micronucleus/aberration tests | f |
| ClCC(Cl)Cl | CCRIS mutagenicity, Ames/micronucleus/aberration tests | f |
| CCCCC(CC)COC(=O)c1ccccc1C(=O)O (stereo not drawn) | CCRIS mutagenicity, Ames/micronucleus/aberration tests | f |
| Oc1c(I)cc(Cl)c2cccnc12 | CCRIS mutagenicity, Ames/micronucleus/aberration tests | f |
| C=CC(=O)OCCBr | CCRIS mutagenicity, Ames/micronucleus/aberration tests | f |
| CCN(CC)CCCC(C)Nc1c2ccc(Cl)cc2nc2ccc(OC)cc12 (stereo not drawn) | CCRIS mutagenicity, Ames/micronucleus/aberration tests | t |
| O=C(O)CS | CCRIS mutagenicity, Ames/micronucleus/aberration tests | f |
| CN(C)CCOC(C)(c1ccccc1)c1ccccn1 (stereo not drawn) | CCRIS mutagenicity, Ames/micronucleus/aberration tests | f |
| [Ga]#[As] | CCRIS mutagenicity, Ames/micronucleus/aberration tests | f |
| CCCCCN(CCCCC)CCCCC | CCRIS mutagenicity, Ames/micronucleus/aberration tests | f |
| Cc1cccc(C)c1N | CCRIS mutagenicity, Ames/micronucleus/aberration tests | f |
| Cc1cc(O)ccc1Cl | CCRIS mutagenicity, Ames/micronucleus/aberration tests | f |
| C=C(C)C#N | CCRIS mutagenicity, Ames/micronucleus/aberration tests | f |
| Nc1cc(Cl)ccc1Cl | CCRIS mutagenicity, Ames/micronucleus/aberration tests | f |
| COc1cc([N+](=O)[O-])ccc1N=NC(C(C)=O)C(=O)Nc1ccccc1OC (stereo not drawn) | CCRIS mutagenicity, Ames/micronucleus/aberration tests | f |
| COC(=O)c1ccc(C)cc1 | CCRIS mutagenicity, Ames/micronucleus/aberration tests | f |
| Nc1cc(S(=O)(=O)[O-])cc2c1C(=O)/C(=N\Nc1ccc(-c3ccc(N/N=C4\C(=O)c5c(N)cc(S(=O)(=O)[O-])cc5C=C4S(=O)(=O)[O-])c(O)c3)cc1O)C(S(=O)(=O)[O-])=C2.[Cu].[Cu].[Na+].[Na+].[Na+].[Na+] | CCRIS mutagenicity, Ames/micronucleus/aberration tests | f |
| C=CC(=O)OCCOCCOCCOCCOC(=O)C=C | CCRIS mutagenicity, Ames/micronucleus/aberration tests | f |
| Cc1ccc(S(=O)(=O)NC2CCCCC2)cc1 | CCRIS mutagenicity, Ames/micronucleus/aberration tests | f |
| O=C(O)c1ccc(/C=N/n2nnc3c([nH]c4ccccc43)c2=O)cc1 | CCRIS mutagenicity, Ames/micronucleus/aberration tests | t |
| CCCCCCOC(=O)c1ccccc1C(=O)OCCCCCC | CCRIS mutagenicity, Ames/micronucleus/aberration tests | f |
| COc1cc2c(cc1OC)[C@@]13CCN4CC5=CCO[C@H]6CC(=O)N2[C@H]1[C@H]6[C@H]5C[C@H]43 | CCRIS mutagenicity, Ames/micronucleus/aberration tests | f |
| CC(C)CC(C)Nc1ccc(Nc2ccccc2)cc1 (stereo not drawn) | CCRIS mutagenicity, Ames/micronucleus/aberration tests | f |
| S=C1NCCN1 | CCRIS mutagenicity, Ames/micronucleus/aberration tests | f |
